Provenance of the data: paper PMC8185074

# target-system: HDAC6 (Homo sapiens, UniProt Q9UBN7)
# Construct: purchased Reaction Biology Corporation (assay run by the CRO)
# Sequence (Q9UBN7 whole entry): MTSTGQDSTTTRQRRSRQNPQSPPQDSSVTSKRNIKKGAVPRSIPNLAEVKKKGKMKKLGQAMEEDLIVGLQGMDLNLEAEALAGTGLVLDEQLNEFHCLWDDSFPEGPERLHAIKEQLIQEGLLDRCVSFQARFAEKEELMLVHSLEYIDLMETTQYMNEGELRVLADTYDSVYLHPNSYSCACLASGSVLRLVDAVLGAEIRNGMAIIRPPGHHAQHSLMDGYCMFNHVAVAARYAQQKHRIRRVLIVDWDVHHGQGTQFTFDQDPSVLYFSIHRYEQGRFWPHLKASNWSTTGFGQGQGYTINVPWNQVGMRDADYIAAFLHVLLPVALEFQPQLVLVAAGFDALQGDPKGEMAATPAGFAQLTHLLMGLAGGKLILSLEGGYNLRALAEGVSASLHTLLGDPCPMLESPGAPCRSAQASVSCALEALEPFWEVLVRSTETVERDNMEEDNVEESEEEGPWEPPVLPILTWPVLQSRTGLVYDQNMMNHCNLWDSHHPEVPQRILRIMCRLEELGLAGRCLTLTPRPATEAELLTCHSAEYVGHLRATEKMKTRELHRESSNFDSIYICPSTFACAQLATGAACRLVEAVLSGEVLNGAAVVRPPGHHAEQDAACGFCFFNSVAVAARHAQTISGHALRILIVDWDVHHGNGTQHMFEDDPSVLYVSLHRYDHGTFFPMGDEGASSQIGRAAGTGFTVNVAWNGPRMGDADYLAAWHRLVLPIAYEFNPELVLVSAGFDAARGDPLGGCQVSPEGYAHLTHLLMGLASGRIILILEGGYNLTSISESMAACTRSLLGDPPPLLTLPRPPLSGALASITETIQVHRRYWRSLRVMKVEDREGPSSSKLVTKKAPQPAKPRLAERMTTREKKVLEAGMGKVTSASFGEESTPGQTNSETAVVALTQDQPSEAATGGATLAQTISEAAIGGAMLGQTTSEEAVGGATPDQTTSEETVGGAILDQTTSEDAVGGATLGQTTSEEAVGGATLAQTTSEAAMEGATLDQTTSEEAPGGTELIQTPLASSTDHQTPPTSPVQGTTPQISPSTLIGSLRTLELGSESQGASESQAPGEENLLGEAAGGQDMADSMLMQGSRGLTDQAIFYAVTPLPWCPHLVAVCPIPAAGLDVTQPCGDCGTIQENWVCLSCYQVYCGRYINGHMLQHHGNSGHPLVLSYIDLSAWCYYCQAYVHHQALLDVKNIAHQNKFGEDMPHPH
# assay-name: HDAC6 inhibition, full IC50 measurement (Reaction Biology; fluorogenic p53 peptide RHKK(Ac)AMC)
# Type: biochemical
# test-context: Conc. 4.12E-08 M, t2
# Protocol: The assay was performed using 50 μM fluorogenic peptide from p53 residues 379-382 [RHKK(Ac)AMC] in a base reaction buffer of 50 mM Tris-HCl at pH 8.0, 137 mM NaCl, 2.7 mM KCl, 1 mM MgCl2, and freshly added 1 mg/ml BSA and 1% DMSO. […] Peptide concentrations were calculated based on mass of lyophilized peptide and its molecular weight. […]
Peptide text beside a SMILES is read from it.
Quick reference for HDAC6 activity raw data (signal) among some compounds
experimental-endpoint: HDAC6 activity raw data (signal)

compound	measured-result
NCCCC[C@@H]1NC(=O)[C@@H]2CCCN2C(=O)[C@H](CC(N)=O)NC(=O)[C@H](CCCCCS)NC(=O)CNC(=O)[C@H](Cc2c[nH]c3ccccc23)NC(=O)[C@@H](CCCCN)NC(=O)[C@H](CCC(N)=O)NC1=O [des1.1.0, SHA-Asn-Pro-Lys-Gln-dLys-Trp-Gly] (HELM PEPTIDE1{G.[O=C([C@H](CCCCCS)N[*:1])[*:2]].N.P.K.Q.[dK].W}$PEPTIDE1,PEPTIDE1,1:R1-8:R2$$$V2.0)	228170
NCCCC[C@H]1NC(=O)[C@H](CCC(N)=O)NC(=O)[C@H](CCC(=O)O)NC(=O)[C@@H]2CCCN2C(=O)[C@H](CC(N)=O)NC(=O)[C@H](CCCCCS)NC(=O)CNC(=O)[C@H](Cc2c[nH]c3ccccc23)NC1=O [des1.1.1, SHA-Asn-Pro-Glu-Gln-dLys-Trp-Gly] (HELM PEPTIDE1{E.Q.[dK].W.G.[O=C([C@H](CCCCCS)N[*:1])[*:2]].N.P}$PEPTIDE1,PEPTIDE1,1:R1-8:R2$$$V2.0)	217932
CCCC[C@H]1NC(=O)[C@H](Cc2ccccc2)NC(=O)[C@H](CCCCCS)NC(=O)[C@@H](CCCNC(=N)N)NC(=O)[C@H](C)NC(=O)[C@@H](CO)NC(=O)[C@@H](C)NC(=O)[C@H](CCCCN)NC1=O [des4.3.1.3, SHA-Phe-dNle-Lys-dAla-dSer-Ala-dArg] (HELM PEPTIDE1{A.[dR].[O=C([C@H](CCCCCS)N[*:1])[*:2]].F.[CCCC[C@@H](N[*:1])C(=O)[*:2]].K.[dA].[dS]}$PEPTIDE1,PEPTIDE1,1:R1-8:R2$$$V2.0)	336992
